Assay: Phase I PK study in adults with acne: topical minocycline foam 4% for 21 days vs single oral dose of minocycline (FX2014-03)
Assay type: in vivo, human
Details: both sexes, human, plasma, po, 1 mg/kg, Period 1, single oral dose ~1 mg/kg minocycline, Day 1-5; read-out: AUC0-tldc, Mean
assayMetric: AUC (ng·h/mL)
Output spec: scalar in ng·h/mL, unitless text.

Quick check: AUC of CN(C)c1ccc(O)c2c1C[C@H]1C[C@H]3[C@H](N(C)C)C(O)=C(C(N)=O)C(=O)[C@@]3(O)C(O)=C1C2=O ?
15200
